- assayTarget: T1, Human β-cardiac myosin S2 peptide, wild-type (MYH7, 19 residues) (human, also: in FRET: FITC on N-terminus of one monomer, terbium-DTPA-cytosine chelate on C-terminal Lys of the other)
- T1 construct: Chemically synthesized; forms a coiled-coil dimer; also called human cardiac myosin S2 peptide; cardiac muscle myosin S2^pep
- T1 peptide: EMNERLEDEEEMNAELTAK
- procedureSummary: competitive ELISA (curve fit of OD), printed as 'binding efficiency'; antibody 1:64, 62.5 nM S2 peptide, stabilizer 0 to 250 nM, rabbit skeletal myosin coated
Where no end group is shown, it is not given here.
endpoint: Kd (nM)
Give the value, in units of nM, as a plain number.

Inquiry: Name the recorded Kd of the binder listed here: KKKKKKKKFKAKKKKKK (also called stabilizing peptide; unlabeled stabilizer) [Stabilizer peptide]
Reply text: 1.37
